# system-tested: ADP-ribosylhydrolase ARH3 (Homo sapiens)
# Sequence (Q9NX46 whole entry): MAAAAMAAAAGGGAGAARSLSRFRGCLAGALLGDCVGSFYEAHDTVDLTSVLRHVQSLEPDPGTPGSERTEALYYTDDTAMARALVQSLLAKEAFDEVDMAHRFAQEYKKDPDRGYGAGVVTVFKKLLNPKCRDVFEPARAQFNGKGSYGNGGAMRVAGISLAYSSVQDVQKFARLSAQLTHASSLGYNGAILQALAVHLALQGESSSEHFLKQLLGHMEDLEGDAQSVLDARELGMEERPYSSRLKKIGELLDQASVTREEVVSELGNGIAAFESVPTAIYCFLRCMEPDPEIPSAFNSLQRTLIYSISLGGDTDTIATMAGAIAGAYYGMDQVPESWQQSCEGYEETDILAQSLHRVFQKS
# assay-details: Inhibition of human full length C-terminus His-tagged ARH3 expressed in Escherichia coli using Bt-NAD ribosylated PARP1 substrate after 30 mins by TR-FRET assay
pEC50: −log10 of the molar value.
Recorded pEC50 by entry

{"sample-smiles": "Cn1c(=O)c2cc(S(=O)(=O)NC3(C)CC3)ccc2n(CC2CC2)c1=O", "measured-quantity": "pEC50", "result": "< 4.00"}

For the compound `Cc1cc(Cn2c(=O)n(Cc3cnn(C)c3)c(=O)c3cc(S(=O)(=O)NC4(C)CC4)ccc32)n(C)n1` , give its measured pEC50 value. < 4.00

For the compound `Cc1ncc(Cn2c(=O)c3cc(S(=O)(=O)NC4(C)CC4)ccc3n(CC3CC3)c2=O)s1` , give its measured pEC50 value. < 4.00

###

# assay-details: Half life in CD1 mouse at 1 mg/kg, iv administered as single dose by LC-MS/MS analysis
# Assay type: ADME, organism-based
# condition-label: in vivo
Recorded half-life by entry
Lab book: enter the figure in min, no units written.

{"sample-smiles": "Cn1cc(Cn2c(=O)c3cc(S(=O)(=O)NC4(C)CC4)ccc3n(CC3COC3)c2=O)cn1", "reading-unit": "min", "half-life": 22}

// moving on: another record for half-life
For the molecule `Cc1cc(Cn2c(=O)c3cc(S(=O)(=O)NC4(C)CC4)ccc3n(CC3COC3)c2=O)on1` , give its measured half-life value. 12

###

Recorded pEC50 by entry
# system-tested: Poly(ADP-ribose) glycohydrolase (Homo sapiens, UniProt Q86W56)
# Sequence (Q86W56 whole entry): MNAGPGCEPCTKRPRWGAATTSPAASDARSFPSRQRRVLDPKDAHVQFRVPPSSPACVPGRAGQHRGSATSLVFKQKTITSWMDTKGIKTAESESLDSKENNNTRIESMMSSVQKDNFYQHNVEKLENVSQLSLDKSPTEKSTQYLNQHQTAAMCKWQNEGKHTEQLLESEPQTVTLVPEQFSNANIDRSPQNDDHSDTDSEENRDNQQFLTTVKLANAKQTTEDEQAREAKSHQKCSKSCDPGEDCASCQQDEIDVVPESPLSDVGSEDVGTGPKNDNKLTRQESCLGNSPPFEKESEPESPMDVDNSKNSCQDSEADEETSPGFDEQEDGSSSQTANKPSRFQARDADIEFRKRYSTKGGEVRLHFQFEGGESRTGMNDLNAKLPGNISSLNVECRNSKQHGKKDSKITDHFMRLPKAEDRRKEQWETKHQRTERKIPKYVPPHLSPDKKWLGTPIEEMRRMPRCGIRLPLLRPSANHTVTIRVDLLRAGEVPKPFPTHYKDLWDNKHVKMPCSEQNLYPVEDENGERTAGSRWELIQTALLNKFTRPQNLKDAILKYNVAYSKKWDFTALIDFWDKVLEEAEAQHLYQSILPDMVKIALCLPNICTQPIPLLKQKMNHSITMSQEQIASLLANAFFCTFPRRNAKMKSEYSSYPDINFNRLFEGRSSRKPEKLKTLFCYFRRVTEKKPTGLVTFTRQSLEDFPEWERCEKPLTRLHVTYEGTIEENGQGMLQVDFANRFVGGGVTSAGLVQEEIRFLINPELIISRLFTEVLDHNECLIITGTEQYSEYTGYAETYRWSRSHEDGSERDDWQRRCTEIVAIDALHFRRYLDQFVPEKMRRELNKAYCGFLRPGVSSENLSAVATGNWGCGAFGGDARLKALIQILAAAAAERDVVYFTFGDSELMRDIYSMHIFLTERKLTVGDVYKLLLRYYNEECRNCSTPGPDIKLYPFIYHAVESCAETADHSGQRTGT
# assay-details: Inhibition of human full length PARG using Bt-NAD ribosylated PARP1 substrate after 10 mins by TR-FRET assay
Bear in mind: pEC50 is minus log10 of a mol/L concentration; give just that figure.

// worked examples, pEC50 included
{"sample-smiles": "C#CCn1c(=O)n(CC#N)c(=O)c2cc(S(=O)(=O)NC3(C)CC3)ccc21", "system-tested": "Poly(ADP-ribose) glycohydrolase (Homo sapiens, UniProt Q86W56)", "measured-quantity": "pEC50", "result": 6.60}
{"sample-smiles": "Cc1cc(Cn2c(=O)n(CC#N)c(=O)c3cc(S(=O)(=O)NC4(C)CC4)ccc32)n(C)n1", "system-tested": "Poly(ADP-ribose) glycohydrolase (Homo sapiens, UniProt Q86W56)", "measured-quantity": "pEC50", "result": 6.55}
{"sample-smiles": "CCn1c(=O)n(C)c(=O)c2cc(S(=O)(=O)NC3(C)CC3)ccc21", "system-tested": "Poly(ADP-ribose) glycohydrolase (Homo sapiens, UniProt Q86W56)", "measured-quantity": "pEC50", "result": 5.89}
{"sample-smiles": "Cn1c(=O)n(Cc2ccoc2)c(=O)c2cc(S(=O)(=O)NC3(C)CC3)ccc21", "system-tested": "Poly(ADP-ribose) glycohydrolase (Homo sapiens, UniProt Q86W56)", "measured-quantity": "pEC50", "result": 5.22}
{"sample-smiles": "Cc1noc(C)c1Cn1c(=O)c2cc(S(=O)(=O)NC3(C)CC3)ccc2n(C)c1=O", "system-tested": "Poly(ADP-ribose) glycohydrolase (Homo sapiens, UniProt Q86W56)", "measured-quantity": "pEC50", "result": 6.21}

For the compound `Cn1c(=O)n(Cc2cn[nH]c2)c(=O)c2cc(S(=O)(=O)NC3(C)CC3)ccc21` , give its measured pEC50 value. 6.42

For the compound `CCC(C)(C)NS(=O)(=O)c1ccc2c(c1)C(=O)c1ccccc1C2=O` , give its measured pEC50 value. 4.31

For the compound `O=C1c2ccccc2C(=O)c2cc(S(=O)(=O)NCC3CC3)ccc21` , give its measured pEC50 value. 4.62

For the compound `Cn1c(=O)n(Cc2cocn2)c(=O)c2cc(S(=O)(=O)NC3(C)CC3)ccc21` , give its measured pEC50 value. 4.68

For the compound `Cn1nnnc1Cn1c(=O)c2cc(S(=O)(=O)NC3(C)CC3)ccc2n(C)c1=O` , give its measured pEC50 value. 5.52

For the compound `CCn1cc(Cn2c(=O)c3cc(S(=O)(=O)NC4(C)CC4)ccc3n(C)c2=O)cn1` , give its measured pEC50 value. 6.35
